system: OVCAR-4 ovarian; test: NCI-60 one-dose screen, 48 h (100 = growth as untreated, 0 = no growth, -100 = all killed); conditions: 10 µM unless noted
The panel holds about 83,000 compounds, 20% with a hit somewhere; the sample as a whole holds those more often.
readout.label: growth (%)
Express your answer in %, writing the number without its unit.

Read the entry COC(=O)C1=C(C(=O)ONCCN(C)C)C2C=CC1(C(Cc1ccccc1)Nc1ccc(F)cc1)O2 (configuration not stated) and write its reported growth.
94.5

---

The entries below are paired with their reported growth.
tested on: BT-549 breast; assay: NCI-60 one-dose screen, 48 h (100 = growth as untreated, 0 = no growth, -100 = all killed); details: 10 µM unless noted
The panel holds about 83,000 compounds, 20% with a hit somewhere; the sample as a whole holds those more often.
Express your answer in %, writing the number without its unit.

Sample records with growth:
| molecule | unit.info | growth |
| --- | --- | --- |
| O=C(Nc1cccc(Cl)c1)Oc1c(Br)c(Br)c(Br)c(Br)c1Br | % | 79.5 |
| O=C(CN1CCOCC1)Nc1ccc2ncnc(Nc3ccc(OCc4cccc(F)c4)c(Cl)c3)c2c1 | % | 70.8 |
| CCOC(=O)c1c(SC)nn(-c2cc(=O)[nH]c3ccc(Br)cc23)c1N | % | 116 |

Read the entry COc1ccc(C(O)c2cc3c(N)c(C(=O)Nc4ccccc4)sc3nc2C)cc1 (stereo unspecified) and write its reported growth.
31.6

Read the entry COc1ccc2c(/C=C3/C(=O)NC(=S)NC3C)cc(=O)oc2c1 (stereo unspecified) and write its reported growth.
103

Read the entry COc1cc(NCCN(CC(C)C)C2CCCC2)c2ncccc2c1 and write its reported growth.
98.8

Read the entry CCc1c(Nc2ccc(C)cc2)nc(N)[nH]c1=O and write its reported growth.
101

Values were extracted from PubChem BioAssay (NCI).
